System: West Nile virus
Assay: Inhibition of West Nile virus NS2B-NS3 protease expressed in Escherichia coli Top10F' at 25 uM pre-incubated for 15 mins before addition of Bz-NIe-Lys-Arg-Arg-AMC substrate by spectrofluorometry
Active and inactive are the calls of the source. The calls are words filed in the database; no cut-off is given here.
metric_name: inhibition

Below are worked cases with known answers.
> print(dat)
                              sample.smiles  metric.name  reported
1  O=C(NCc1cn(CSc2ccccc2)nn1)Nc1cccc(C(=O)Nc2cccc(Oc3ccccc3)c2)c1   inhibition     60.3%
2  O=C(NCc1cn(CSc2ccccc2)nn1)Nc1ccc(C(=O)Nc2ccc(Oc3ccccc3)cc2)cc1   inhibition  inactive
3  O=C(NCc1cn(Cc2ccc(F)cc2)nn1)Nc1ccc(C(=O)NCc2ccccc2)cc1   inhibition  inactive
4  O=C(NCc1cn(CSc2ccccc2)nn1)Nc1ccc(C(=O)NCCc2ccccc2)cc1   inhibition  inactive

Now look at this entry.
// query Reported inhibition, compound `O=C(NCc1cn(Cc2ccccc2)nn1)Nc1ccc(C(=O)Nc2ccccc2)cc1` : ____
// result inactive

----------
Reported inhibition values are given for each entry in this list.
Test system: West Nile virus
Assay: Inhibition of West Nile virus NS2B-NS3 protease expressed in Escherichia coli Top10F' at 10 uM pre-incubated for 15 mins before addition of Bz-NIe-Lys-Arg-Arg-AMC substrate by spectrofluorometry
Conditions: 10 uM
The reply should contain only the number, in %.

> print(dat)
                              sample.smiles  reported
1  O=C(NCc1cn(Cc2ccc(F)cc2)nn1)Nc1ccc(C(=O)Nc2cccc(Oc3ccccc3)c2)cc1      44.5
2  O=C(NCc1cn(Cc2ccccc2)nn1)Nc1ccc(C(=O)Nc2ccc(Oc3ccccc3)cc2)cc1      46.5
3  O=C(NCc1cn(Cc2ccc(F)cc2)nn1)Nc1ccc(C(=O)Nc2ccc(Oc3ccccc3)cc2)cc1      58.8

Now look at this entry.
// query Reported inhibition, compound `O=C(NCc1cn(CSc2ccccc2)nn1)Nc1cccc(C(=O)Nc2cccc(Oc3ccccc3)c2)c1` : ____
// result 49.3

----------
Test system: West Nile virus
Assay: Inhibition of West Nile virus NS2B-NS3 protease expressed in Escherichia coli Top10F' at 25 uM pre-incubated for 15 mins before addition of Bz-NIe-Lys-Arg-Arg-AMC substrate by spectrofluorometry
Activity calls are given as the source filed them. The calls are words filed in the database; no cut-off is given here.
metric_name: inhibition

Below are worked cases with known answers.
> print(dat)
                              sample.smiles  reported
1  O=C(NCc1cn(Cc2ccc(F)cc2)nn1)Nc1ccc(C(=O)NCCN2CCOCC2)cc1  inactive
2  O=C(NCc1cn(Cc2ccc(F)cc2)nn1)Nc1ccc(C(=O)Nc2ccc(Oc3ccccc3)cc2)cc1     82.3%
3  O=C(NCc1cn(CSc2ccccc2)nn1)Nc1ccc(C(=O)NCc2ccccc2)cc1  inactive
4  O=C(NCc1cn(Cc2ccc(F)cc2)nn1)Nc1ccc(C(=O)Nc2cccc(Oc3ccccc3)c2)cc1     60.9%

// query Reported inhibition, compound `O=C(NCc1cn(Cc2ccccc2)nn1)Nc1ccc(C(=O)NCc2ccccc2)cc1` : ____
// result inactive

----------
Test system: West Nile virus
Experiment: Inhibition of West Nile virus NS2B-NS3 protease expressed in Escherichia coli Top10F' at 25 uM pre-incubated for 15 mins before addition of Bz-NIe-Lys-Arg-Arg-AMC substrate by spectrofluorometry
The source made the active and inactive calls. No cut-off for these calls is given here.
metric_name: inhibition

> print(dat)
                              sample.smiles     assay.target  metric.name  reported
1  O=C(NCc1cn(Cc2ccccc2)nn1)Nc1cccc(C(=O)NCc2ccccc2)c1  West Nile virus   inhibition  inactive
2  O=C(NCc1cn(CSc2ccccc2)nn1)Nc1ccc(C(=O)Nc2ccccc2)cc1  West Nile virus   inhibition  inactive
3  O=C(NCc1cn(Cc2ccc(F)cc2)nn1)Nc1ccc(C(=O)NCc2ccco2)cc1  West Nile virus   inhibition  inactive
4  O=C(NCc1cn(Cc2ccccc2)nn1)Nc1cccc(C(=O)Nc2cccc(Oc3ccccc3)c2)c1  West Nile virus   inhibition  inactive
5  O=C(NCc1cn(Cc2ccccc2)nn1)Nc1cccc(C(=O)NCCc2ccccc2)c1  West Nile virus   inhibition  inactive

// query Reported inhibition, compound `O=C(NCc1cn(CSc2ccccc2)nn1)Nc1cccc(C(=O)NCCc2ccccc2)c1` : ____
// result inactive

// query Reported inhibition, compound `O=C(NCc1cn(Cc2ccccc2)nn1)Nc1ccc(C(=O)Nc2cccc(Oc3ccccc3)c2)cc1` : ____
// result inactive

// query Reported inhibition, compound `O=C(NCc1cn(Cc2ccc(F)cc2)nn1)Nc1ccc(C(=O)Nc2ccccc2)cc1` : ____
// result inactive

// query Reported inhibition, compound `O=C(NCc1cn(Cc2ccccc2)nn1)Nc1ccc(C(=O)NCCN2CCOCC2)cc1` : ____
// result inactive

// query Reported inhibition, compound `O=C(NCc1cn(Cc2ccccc2)nn1)Nc1ccc(C(=O)Nc2ccc(Oc3ccccc3)cc2)cc1` : ____
// result 58%

// query Reported inhibition, compound `O=C(NCc1cn(Cc2ccc(F)cc2)nn1)Nc1ccc(C(=O)NCCc2ccccc2)cc1` : ____
// result inactive

----------
System: dengue virus type 2
Test: Inhibition of Dengue virus 2 NS2B-NS3 protease expressed in Escherichia coli Top10F' at 10 uM pre-incubated for 15 mins before addition of Bz-NIe-Lys-Arg-Arg-AMC substrate by spectrofluorometry
The source made the active and inactive calls. The rule behind the calls is not given here.
metric_name: inhibition

> print(dat)
                              sample.smiles  metric.name  reported
1  O=C(NCc1cn(CSc2ccccc2)nn1)Nc1cccc(C(=O)Nc2cccc(Oc3ccccc3)c2)c1   inhibition     40.3%
2  O=C(NCc1cn(CSc2ccccc2)nn1)Nc1ccc(C(=O)Nc2ccc(Oc3ccccc3)cc2)cc1   inhibition  inactive
3  O=C(NCc1cn(Cc2ccc(F)cc2)nn1)Nc1ccc(C(=O)Nc2ccccc2)cc1   inhibition  inactive
4  O=C(NCc1cn(CSc2ccccc2)nn1)Nc1ccc(C(=O)NCCN2CCOCC2)cc1   inhibition  inactive

Now look at this entry.
// query Reported inhibition, compound `O=C(NCc1cn(Cc2ccc(F)cc2)nn1)Nc1ccc(C(=O)NCCN2CCOCC2)cc1` : ____
// result inactive

----------
Tested on: dengue virus type 2
Assay: Inhibition of Dengue virus 2 NS2B-NS3 protease expressed in Escherichia coli Top10F' at 25 uM pre-incubated for 15 mins before addition of Bz-NIe-Lys-Arg-Arg-AMC substrate by spectrofluorometry
The source made the active and inactive calls. The calls are words filed in the database; no cut-off is given here.
metric_name: inhibition

Below are worked cases with known answers.
> print(dat)
                               sample.smiles  reported
 1  O=C(NCc1cn(CSc2ccccc2)nn1)Nc1cccc(C(=O)NCCc2ccccc2)c1  inactive
 2  O=C(NCc1cn(CSc2ccccc2)nn1)Nc1cccc(C(=O)Nc2cccc(Oc3ccccc3)c2)c1     58.2%
 3  O=C(NCc1cn(Cc2ccccc2)nn1)Nc1cccc(C(=O)Nc2cccc(Oc3ccccc3)c2)c1  inactive
 4  O=C(NCc1cn(CSc2ccccc2)nn1)Nc1ccc(C(=O)NCc2ccccc2)cc1  inactive
 5  O=C(NCc1cn(Cc2ccc(F)cc2)nn1)Nc1ccc(C(=O)NCc2ccco2)cc1  inactive
 6  O=C(NCc1cn(Cc2ccccc2)nn1)Nc1ccc(C(=O)Nc2ccc(Oc3ccccc3)cc2)cc1     52.5%
 7  O=C(NCc1cn(Cc2ccc(F)cc2)nn1)Nc1ccc(C(=O)NCCc2ccccc2)cc1  inactive
 8  O=C(NCc1cn(Cc2ccccc2)nn1)Nc1ccc(C(=O)NCCN2CCOCC2)cc1  inactive
 9  O=C(NCc1cn(CSc2ccccc2)nn1)Nc1ccc(C(=O)Nc2ccccc2)cc1  inactive
10  O=C(NCc1cn(Cc2ccc(F)cc2)nn1)Nc1ccc(C(=O)Nc2ccccc2)cc1  inactive

Now look at this entry.
// query Reported inhibition, molecule `O=C(NCc1cn(Cc2ccc(F)cc2)nn1)Nc1ccc(C(=O)Nc2ccc(Oc3ccccc3)cc2)cc1` : ____
// result 76%

----------
Tested on: dengue virus type 2
Assay: Inhibition of Dengue virus 2 NS2B-NS3 protease expressed in Escherichia coli Top10F' at 10 uM pre-incubated for 15 mins before addition of Bz-NIe-Lys-Arg-Arg-AMC substrate by spectrofluorometry
Active and inactive are the calls of the source. No cut-off for these calls is given here.
metric_name: inhibition

> print(dat)
                              sample.smiles  metric.name  reported
1  O=C(NCc1cn(CSc2ccccc2)nn1)Nc1ccc(C(=O)NCCc2ccccc2)cc1   inhibition  inactive
2  O=C(NCc1cn(Cc2ccccc2)nn1)Nc1cccc(C(=O)Nc2cccc(Oc3ccccc3)c2)c1   inhibition  inactive
3  O=C(NCc1cn(Cc2ccc(F)cc2)nn1)Nc1ccc(C(=O)NCc2ccccc2)cc1   inhibition  inactive

----------
System: dengue virus type 2
Test: Inhibition of Dengue virus 2 NS2B-NS3 protease expressed in Escherichia coli Top10F' at 25 uM pre-incubated for 15 mins before addition of Bz-NIe-Lys-Arg-Arg-AMC substrate by spectrofluorometry
Active and inactive are the calls of the source. No cut-off for these calls is given here.
metric_name: inhibition

> print(dat)
                              sample.smiles  reported
1  O=C(NCc1cn(CSc2ccccc2)nn1)Nc1ccc(C(=O)Nc2ccc(Oc3ccccc3)cc2)cc1  inactive
2  O=C(NCc1cn(Cc2ccc(F)cc2)nn1)Nc1ccc(C(=O)Nc2cccc(Oc3ccccc3)c2)cc1       57%
3  O=C(NCc1cn(Cc2ccccc2)nn1)Nc1ccc(C(=O)NCc2ccco2)cc1  inactive
4  O=C(NCc1cn(CSc2ccccc2)nn1)Nc1cccc(C(=O)NCc2ccccc2)c1  inactive

// query Reported inhibition, molecule `O=C(NCc1cn(CSc2ccccc2)nn1)Nc1ccc(C(=O)NCCN2CCOCC2)cc1` : ____
// result inactive

Ref: ChEMBL document CHEMBL2046357
